- test-settings: in isopropanol, 303.15 K
quantity: solubility (mole fraction)
Just the number, please, no unit attached.

Please supply the value of reported solubility (mole fraction) for the item CCCCCCC1(CCCCCC)c2cc(Br)ccc2-c2ccc(Br)cc21 0.00191

---

- test-settings: in toluene, 303.15 K
quantity: solubility (mole fraction)
// print number alone

Supply reported solubility (mole fraction) belonging to this molecule: CCCCCCC1(CCCCCC)c2cc(Br)ccc2-c2ccc(Br)cc21 0.152

---

- test-settings: in acetonitrile, 323.15 K
quantity: solubility (mole fraction)
# respond with the number and nothing more

Look up solubility (mole fraction) of CCCCCCC1(CCCCCC)c2cc(Br)ccc2-c2ccc(Br)cc21 and report it. 0.0012

---

- test-settings: in toluene, 323.15 K
quantity: solubility (mole fraction)
Reply with just the number.

Please report the measured solubility (mole fraction) for CCCCCCC1(CCCCCC)c2cc(Br)ccc2-c2ccc(Br)cc21 0.242

---

- test-settings: in 1,4-dioxane, 323.15 K
quantity: solubility (mole fraction)

Return solubility (mole fraction) (reported value) for this compound: CCCCCCC1(CCCCCC)c2cc(Br)ccc2-c2ccc(Br)cc21 0.17

---

- test-settings: in n-butanol, 283.15 K
quantity: solubility (mole fraction)
Lab note: jot down the number only; don't add units.

Answer with reported solubility (mole fraction) of CCCCCCC1(CCCCCC)c2cc(Br)ccc2-c2ccc(Br)cc21 0.00329

---

- test-settings: in chloroform, 283.15 K
quantity: solubility (mole fraction)

Identify measured solubility (mole fraction) associated with CCCCCCC1(CCCCCC)c2cc(Br)ccc2-c2ccc(Br)cc21 0.0364

---

- test-settings: in n-butanol, 313.15 K
quantity: solubility (mole fraction)
Give the figure only, with no unit attached.

Answer with reported solubility (mole fraction) of CCCCCCC1(CCCCCC)c2cc(Br)ccc2-c2ccc(Br)cc21 0.0127

---

- test-settings: in dichloromethane, 293.15 K
quantity: solubility (mole fraction)
Lab note: jot the number down without any unit.

Tell me measured solubility (mole fraction) for CCCCCCC1(CCCCCC)c2cc(Br)ccc2-c2ccc(Br)cc21 please. 0.0633

---

- test-settings: in chloroform, 303.15 K
quantity: solubility (mole fraction)
Number, no unit, nothing else.

Return solubility (mole fraction) for the following compound: CCCCCCC1(CCCCCC)c2cc(Br)ccc2-c2ccc(Br)cc21 0.0483

---

- test-settings: in THF, 323.15 K
quantity: solubility (mole fraction)
The reply should be a number, written without any unit.

Give the reported solubility (mole fraction) for this molecule. CCCCCCC1(CCCCCC)c2cc(Br)ccc2-c2ccc(Br)cc21 0.158

---

- test-settings: in methanol, 293.15 K
quantity: solubility (mole fraction)
Enter the number alone.

Fill in solubility (mole fraction) for record CCCCCCC1(CCCCCC)c2cc(Br)ccc2-c2ccc(Br)cc21 0.000189

---

- test-settings: in THF, 303.15 K
quantity: solubility (mole fraction)
Please respond with just the number, no unit label.

Look up and state reported solubility (mole fraction) for CCCCCCC1(CCCCCC)c2cc(Br)ccc2-c2ccc(Br)cc21 0.127

---

- test-settings: in acetonitrile, 293.15 K
quantity: solubility (mole fraction)
Number only, please.

Supply reported solubility (mole fraction) belonging to this compound: CCCCCCC1(CCCCCC)c2cc(Br)ccc2-c2ccc(Br)cc21 0.000473
